biological target: UniProt:P35563; assay: Inhibitory effect on von Bezold-Jarisch reflex (anti-serotonin S3 activity); assay type: in vivo, Male Wister rats; set-up: Male Wister rats weighing 250-350 g were anesthetized with urethane; from tissue; host or cells: whole animal in vivo (male Wistar rats); conditions: 0.05 h, test compound intravenous 3 minutes before 2-methylserotonin 10-30 μg/kg i.v., read-out: ED50 von Bezold-Jarisch Reflex Inhibition
Where a name gives a salt, the structure may show the parent alone.
Provide the recorded ED50 for the entries that follow.
Numeric only. Scale: µg/kg

# query: ED50 of entry CN1C2CCCC1CC(NC(=O)c1nn(C)c3ccccc13)C2 (stereo not shown) [granisetron hydrochloride]
0.26

Now the compound Cc1nccn1CC1CCc2c(c3ccccc3n2C)C1=O.Cl (stereo not shown) [ondansetron hydrochloride]
1.1

Now the compound CCN(CC)CCNC(=O)c1cc(Cl)c(N)cc1OC.Cl.Cl.O [metoclopramide hydrochloride]
181

Now the compound CCN1CCN(C)C[C@@H](NC(=O)c2cc(Br)c(NC)nc2OC)C1.O=C(O)/C=C/C(=O)O.O=C(O)/C=C/C(=O)O
1.9

----------
Experiment: Inhibitory effect on exploratory activity
Set-up: species or system Male mice (Std-ddy strain)
Conditions: mouse, in vivo; mice, oral, 2 hours after administration, counts for 3 minutes; read-out: ED50 inhibition of exploratory activity
Description: Inhibitory Effect on Exploratory Activity Male mice (5 per group, Std-ddy strain, weighing 20-25 g) were used as the test animals, each of which was orally administered with a test compound which was dissolved or suspended in 0.5% tragacanth solution and after 2 hours from the administration put in a test cage (23×35×30 cm) on Animex activity meter (Farad Co.). Exploratory activity of each mouse was counted for the following 3 minutes. […]
reported metric: ED50 at 2 h (mg/kg)
Numeric only. Scale: mg/kg

# query: ED50 at 2 h of entry CCN(CC)CCNC(=O)c1cc(Cl)c(N)cc1OC.Cl.Cl.O [metoclopramide hydrochloride]
22.4

Now the compound CCN1CCN(C)C[C@@H](NC(=O)c2cc(Br)c(NC)nc2OC)C1.O=C(O)/C=C/C(=O)O.O=C(O)/C=C/C(=O)O [Example 1]
48.5

----------
target: serotonin S3 (5-HT3) receptor (Rattus norvegicus); experiment: Serotonin S3 receptor-binding (in vitro receptor binding assay, [3H] quipazine); set-up: Crude synaptosome fractions prepared from rat brain were used as receptor samples; from tissue; host or cells: rat brain, crude synaptosome fraction
Sequence (P35563 24-483): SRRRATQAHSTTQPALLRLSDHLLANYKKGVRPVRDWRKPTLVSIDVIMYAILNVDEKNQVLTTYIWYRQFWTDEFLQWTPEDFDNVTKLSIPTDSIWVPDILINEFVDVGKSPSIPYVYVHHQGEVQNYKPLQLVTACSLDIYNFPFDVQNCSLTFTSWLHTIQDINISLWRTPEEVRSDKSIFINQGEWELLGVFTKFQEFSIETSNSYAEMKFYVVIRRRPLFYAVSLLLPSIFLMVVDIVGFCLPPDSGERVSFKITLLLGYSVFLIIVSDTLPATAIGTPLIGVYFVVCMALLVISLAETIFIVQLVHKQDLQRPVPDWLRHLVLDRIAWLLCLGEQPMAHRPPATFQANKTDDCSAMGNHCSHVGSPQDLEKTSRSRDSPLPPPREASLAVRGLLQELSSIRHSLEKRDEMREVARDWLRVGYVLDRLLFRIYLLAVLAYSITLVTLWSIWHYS
reported metric: pIC50
pIC50 field: float, defined as -log10 of concentration (mol/L).

# query: pIC50 of entry CCN(CC)CCNC(=O)c1cc(Cl)c(N)cc1OC.Cl.Cl.O [metoclopramide hydrochloride, dihydrochloride monohydrate]
6.06

These data points were gathered from patent US5945415A.
